Hey, just so you know, these numbers are from patent US9481676B2.

assay target: human recombinant dopamine D2L receptor (Homo sapiens, UniProt P14416)
Construct: expressed in transfected cells; host or cells: CHO cells
Sequence (P14416 whole entry): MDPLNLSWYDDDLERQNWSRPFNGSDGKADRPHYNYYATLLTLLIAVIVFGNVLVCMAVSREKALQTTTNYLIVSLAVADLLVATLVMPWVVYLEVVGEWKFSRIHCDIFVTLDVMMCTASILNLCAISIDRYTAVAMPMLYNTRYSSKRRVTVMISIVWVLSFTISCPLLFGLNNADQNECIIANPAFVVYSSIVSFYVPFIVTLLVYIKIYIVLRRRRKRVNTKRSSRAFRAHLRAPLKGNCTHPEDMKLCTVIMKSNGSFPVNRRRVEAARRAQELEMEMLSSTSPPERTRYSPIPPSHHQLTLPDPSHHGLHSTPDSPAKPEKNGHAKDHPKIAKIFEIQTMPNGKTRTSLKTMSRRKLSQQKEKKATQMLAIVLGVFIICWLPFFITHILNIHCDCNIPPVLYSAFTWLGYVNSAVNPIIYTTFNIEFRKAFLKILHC
method notes: Dopamine D2L radioligand binding ([3H]Spiperone)
recorded conditions: compound at 1 μM; read-out: Dopamine (1 μM) D2L, percent inhibition of specific binding
metric: inhibition at 1 µM (%)
Write it as a number; the unit % goes unstated.

Worked set:
Cc1ccc2c(c1)c1c(n2CC(C)(O)c2ccc(F)cc2)CCN(C)CC1 (stereo not drawn) [Compound No. 14] ... 38
COc1ccc(C(O)Cn2c3c(c4cc(Cl)ccc42)CCN(C)CC3)c(F)c1 (stereo not drawn) [Compound No. 49] ... 32
Cc1ccc2c(c1)c1c(n2CC(=O)OC2CCCC2)CCN(C)CC1 [Compound No. 55] ... 6
CN1CCc2c(n(CC(=O)N3CCNCC3)c3ccc(Cl)cc23)CC1 [Compound No. 72] ... -18
COc1ccc(C(O)Cn2c3c(c4cc(C)ccc42)CCN(C)CC3)cc1 (stereo not drawn) [Compound No. 48] ... 31

stdin: For the compound Cc1ccc2c(c1)c1c(n2CC(C)(O)c2ccc(Cl)cc2)CCN(C)CC1 (stereo not drawn) [Compound No. 15] , what inhibition at 1 µM is on record?
stdout: 45

stdin: Same again, this time with COc1ccc(C#Cn2c3c(c4cc(C)ccc42)CCN(C)CC3)cc1F [Compound No. 284]
stdout: 11

stdin: Would you mind doing CN1CCc2c(n(CCc3ccccc3Cl)c3ccc(Cl)cc23)CC1 [Compound No. 29] as well?
stdout: 67

###

Form field: inhibition at 1 µM (one value per entry).
assay target: human recombinant serotonin (5-Hydroxytryptamine) 5-HT2C receptor (Homo sapiens)
Construct: expressed in transfected cells; host or cells: CHO-K1 cells
method notes: Serotonin 5-HT2C radioligand binding ([3H]Mesulergine)
recorded conditions: compound at 1 μM; read-out: Serotonin (1 μM) 5-HT2C, percent inhibition of specific binding
Number in %, nothing else.

CN1CCc2c(n(CCc3ccccc3F)c3ccccc23)CC1 ... 100
Cc1ccc2c(c1)c1c(n2/C=C/c2ccc(F)cc2)CCN(C)CC1 ... 97
Cc1ccc(C(O)Cn2c3c(c4cc(Cl)ccc42)CCN(C)CC3)cn1 (stereo not drawn) ... 64
COc1ccc(C#Cn2c3c(c4cc(Cl)ccc42)CCN(C)CC3)cc1F ... 100
COc1ccc(C(O)Cn2c3c(c4cc(C)ccc42)CCN(C)CC3)cc1OC (stereo not drawn) ... 66

Shifting focus to the compound that follows.
stdin: Need inhibition at 1 µM, item "CN1CCc2c(n(/C=C/c3ccccc3F)c3ccc(Cl)cc23)CC1"
stdout: 100

###

# inhibition at 1 µM listing for each entry below
assay target: human recombinant histamine H1 receptor (Homo sapiens)
Construct: expressed in transfected cells; host or cells: CHO cells
Sequence (P35367 whole entry): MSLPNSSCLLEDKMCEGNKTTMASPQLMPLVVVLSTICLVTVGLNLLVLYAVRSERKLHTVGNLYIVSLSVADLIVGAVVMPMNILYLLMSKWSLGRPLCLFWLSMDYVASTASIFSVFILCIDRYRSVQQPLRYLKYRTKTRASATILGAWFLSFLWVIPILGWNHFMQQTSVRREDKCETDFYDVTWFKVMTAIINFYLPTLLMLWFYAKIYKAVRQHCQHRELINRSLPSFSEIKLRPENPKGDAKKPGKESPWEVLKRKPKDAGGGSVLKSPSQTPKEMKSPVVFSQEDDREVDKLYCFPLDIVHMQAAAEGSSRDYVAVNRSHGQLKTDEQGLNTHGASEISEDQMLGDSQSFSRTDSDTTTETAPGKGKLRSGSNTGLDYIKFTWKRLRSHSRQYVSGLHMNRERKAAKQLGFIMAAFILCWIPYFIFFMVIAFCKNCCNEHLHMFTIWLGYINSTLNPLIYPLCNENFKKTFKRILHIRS
method notes: Histamine H1 radioligand binding ([3H]Pyrilamine)
recorded conditions: compound at 1 μM; read-out: Histamine Binding (1 μM) H1, percent inhibition of specific binding
Note: unit % is implicit; provide only the numeric part.

C/C(=C\n1c2c(c3cc(Cl)ccc31)CCN(C)CC2)c1ccc(Cl)cc1Cl [Compound No. 239] ... 91
C/C(=C\n1c2c(c3cc(C)ccc31)CCN(C)CC2)c1ccc(F)cc1 [Compound No. 34] ... 95
Cc1ccc2c(c1)c1c(n2/C=C/c2ccccc2)CCN(C)CC1 [Compound No. 229] ... 100

// switching to the query molecule
stdin: Would you mind telling me what inhibition at 1 µM value was observed for Cc1ccc(C(O)Cn2c3c(c4cc(Cl)ccc42)CCN(C)CC3)cc1 (stereo not shown) [Compound No. 26] ?
stdout: 97

###

Reported inhibition at 1 µM values are given for each entry in this list.
assay target: human recombinant serotonin (5-Hydroxytryptamine) 5-HT2C receptor (Homo sapiens, UniProt P28335)
Construct: expressed in transfected cells; host or cells: CHO-K1 cells
Sequence (P28335 33-458): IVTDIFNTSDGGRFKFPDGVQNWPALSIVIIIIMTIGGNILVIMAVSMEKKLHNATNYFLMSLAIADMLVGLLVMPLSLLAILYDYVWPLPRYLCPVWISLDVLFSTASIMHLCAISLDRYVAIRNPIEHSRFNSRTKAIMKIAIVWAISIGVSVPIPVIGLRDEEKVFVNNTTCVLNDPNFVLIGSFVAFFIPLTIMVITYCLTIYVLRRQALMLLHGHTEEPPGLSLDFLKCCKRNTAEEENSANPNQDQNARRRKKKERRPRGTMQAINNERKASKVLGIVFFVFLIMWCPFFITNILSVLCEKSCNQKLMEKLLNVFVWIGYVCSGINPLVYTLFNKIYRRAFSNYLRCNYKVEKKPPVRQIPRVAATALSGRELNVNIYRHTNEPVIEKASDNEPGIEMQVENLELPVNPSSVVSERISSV
method notes: Serotonin 5-HT2C radioligand binding ([3H]Mesulergine)
recorded conditions: compound at 1 μM; read-out: Serotonin (1 μM) 5-HT2C, percent inhibition of specific binding
# number then unit; no other words

Answered cases to consult:
COc1ccc(/C=C/n2c3c(c4cc(C)ccc42)CCN(C)CC3)cc1F [Compound No. 180] ... 100%
COc1ccc(C(O)Cn2c3c(c4cc(C)ccc42)CCN(C)CC3)cc1 (centres unmarked) [Compound No. 48] ... 98%
C/C(=C\n1c2c(c3cc(C)ccc31)CCN(C)CC2)c1ccc(F)c(F)c1 [Compound No. 177] ... 99%
CN1CCc2c(n(/C=C/c3ccc(F)c(F)c3)c3ccc(Cl)cc23)CC1 [Compound No. 236] ... 100%
CN1CCc2c(n(CC(O)c3ccc(F)cc3)c3ccc(Cl)cc23)CC1 (centres unmarked) [Compound No. 51] ... 98%

stdin: For the compound C/C(=C\n1c2c(c3cc(Cl)ccc31)CCN(C)CC2)c1cccc(F)c1 [Compound No. 250] , what inhibition at 1 µM is on record?
stdout: 99%

stdin: Ok, now CN1CCc2c(n(CCc3ccc(C(=O)O)nc3)c3ccc(Cl)cc23)CC1 [Compound No. 21]
stdout: 29%

stdin: Same for CN1CCc2c(n(CC(=O)N(C)C3CCCCC3)c3ccc(Cl)cc23)CC1 [Compound No. 74]
stdout: 1%

stdin: Now the compound Cc1ccc2c(c1)c1c(n2CC(=O)N2CCCC2)CCN(C)CC1 [Compound No. 45]
stdout: 16%

stdin: Repeat with C/C(=C\n1c2c(c3cc(C)ccc31)CCN(C)CC2)c1ccc(Cl)c(Cl)c1 [Compound No. 176]
stdout: 99%

###

assay target: human recombinant serotonin (5-Hydroxytryptamine) 5-HT2A receptor (Homo sapiens, UniProt P28223)
Construct: expressed in transfected cells; host or cells: CHO-K1 cells
Sequence (P28223 whole entry): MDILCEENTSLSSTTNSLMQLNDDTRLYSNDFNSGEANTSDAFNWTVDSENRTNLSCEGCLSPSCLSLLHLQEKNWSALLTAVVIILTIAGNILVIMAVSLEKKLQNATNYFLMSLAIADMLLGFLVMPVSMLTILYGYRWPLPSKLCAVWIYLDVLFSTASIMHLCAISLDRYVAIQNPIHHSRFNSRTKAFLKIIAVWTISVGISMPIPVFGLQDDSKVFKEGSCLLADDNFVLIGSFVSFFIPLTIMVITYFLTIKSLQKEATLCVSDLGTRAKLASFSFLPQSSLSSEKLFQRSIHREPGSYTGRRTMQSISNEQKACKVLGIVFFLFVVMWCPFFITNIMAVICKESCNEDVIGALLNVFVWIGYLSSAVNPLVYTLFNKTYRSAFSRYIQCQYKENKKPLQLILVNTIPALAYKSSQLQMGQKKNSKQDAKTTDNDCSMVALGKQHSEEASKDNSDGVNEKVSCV
method notes: Serotonin 5-HT2A radioligand binding ([3H]Ketanserin)
recorded conditions: compound at 1 μM; read-out: Serotonin (1 μM) 5-HT2A, percent inhibition of specific binding
Listing: inhibition at 1 µM of selected compounds
# number only, unit % dropped from output

The following compounds have reported results that may help.
C=C(Cn1c2c(c3cc(Cl)ccc31)CCN(C)CC2)c1ccc(Cl)cc1 ... 99
Cc1ccc2c(c1)c1c(n2CC(=O)N2CCCCC2)CCN(C)CC1 ... 60
CN1CCc2c(n(CC(=O)N3CCNCC3)c3ccc(Cl)cc23)CC1 ... 23
C/C(=C\n1c2c(c3cc(C)ccc31)CCN(C)CC2)c1ccncc1 ... 102

Note: attention shifts to another entry.
stdin: Reported inhibition at 1 µM, compound "C/C(=C\n1c2c(c3cc(Cl)ccc31)CCN(C)CC2)c1ccc(Cl)c(Cl)c1" : ____
stdout: 100

###

# inhibition at 1 µM per entry
assay target: human recombinant serotonin (5-Hydroxytryptamine) 5-HT6 receptor (Homo sapiens)
Construct: expressed in transfected cells; host or cells: human HeLa cells
Sequence (P50406 whole entry): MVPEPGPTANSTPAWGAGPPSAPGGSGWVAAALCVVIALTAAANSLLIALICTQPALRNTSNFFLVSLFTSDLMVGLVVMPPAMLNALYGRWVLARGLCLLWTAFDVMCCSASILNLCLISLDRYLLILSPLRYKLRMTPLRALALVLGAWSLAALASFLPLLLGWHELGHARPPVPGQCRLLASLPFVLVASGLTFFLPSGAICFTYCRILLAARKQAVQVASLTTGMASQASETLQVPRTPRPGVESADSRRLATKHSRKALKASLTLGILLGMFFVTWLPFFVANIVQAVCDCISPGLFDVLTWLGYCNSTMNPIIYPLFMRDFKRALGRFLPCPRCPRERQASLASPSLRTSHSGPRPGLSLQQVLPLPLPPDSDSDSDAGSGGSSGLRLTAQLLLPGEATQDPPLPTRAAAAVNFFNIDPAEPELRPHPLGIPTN
method notes: Serotonin 5-HT6 radioligand binding ([3H]LSD)
recorded conditions: compound at 1 μM; read-out: Serotonin (1 μM) 5-HT6, percent inhibition of specific binding
Reply with just the number (in %).

Cc1ccc2c(c1)c1c(n2CCc2ccccc2F)CCN(C)CC1 [Compound No. 63] ... 101

stdin: Look up inhibition at 1 µM: C=C(Cn1c2c(c3cc(Cl)ccc31)CCN(C)CC2)c1ccc(Cl)cc1 [Compound No. 35]
stdout: 102

stdin: And what about the molecule COc1ccc(C(O)Cn2c3c(c4cc(Cl)ccc42)CCN(C)CC3)cc1OC (centres unmarked) [Compound No. 77] ?
stdout: 33

stdin: Would you mind doing Cc1ccc2c(c1)c1c(n2CC(O)c2ccccc2)CCN(C)CC1 (centres unmarked) [Compound No. 25] as well?
stdout: 93

stdin: What do you get for Cc1ccc2c(c1)c1c(n2CCc2ccc(C(F)(F)F)nc2)CCN(C)CC1 [Compound No. 20] ?
stdout: 46

stdin: Try this molecule too: Cc1ccc2c(c1)c1c(n2CC(=O)Nc2ccccc2)CCN(C)CC1 [Compound No. 79]
stdout: -7

stdin: # iterate: C/C(=C\n1c2c(c3cc(C)ccc31)CCN(C)CC2)c1cccc(F)c1 [Compound No. 252]
stdout: 98

stdin: Now try COc1ccc(/C(C)=C/n2c3c(c4cc(C)ccc42)CCN(C)CC3)cc1F [Compound No. 179] .
stdout: 77

stdin: Proceed to C/C(=C\n1c2c(c3cc(Cl)ccc31)CCN(C)CC2)c1ccc(F)c(F)c1 [Compound No. 155]
stdout: 101

stdin: Then this molecule: COc1ccc(C(O)Cn2c3c(c4cc(Cl)ccc42)CCN(C)CC3)cc1F (centres unmarked) [Compound No. 67]
stdout: 86

stdin: Try the molecule CC1CCN(C(=O)Cn2c3c(c4cc(Cl)ccc42)CCN(C)CC3)CC1 [Compound No. 76]
stdout: 39

stdin: Okay, and Cc1ccc2c(c1)c1c(n2CC(=O)Nc2ccc(F)cc2)CCN(C)CC1 [Compound No. 44] ?
stdout: 1

stdin: Please answer likewise for CN1CCc2c(n(CC(=O)N3CCOCC3)c3ccc(Cl)cc23)CC1 [Compound No. 60]
stdout: 3

stdin: Would you mind doing COc1ccc(C(O)Cn2c3c(c4cc(Cl)ccc42)CCN(C)CC3)c(F)c1 (centres unmarked) [Compound No. 49] as well?
stdout: 88

stdin: What do you get for Cc1ccc2c(c1)c1c(n2CC(O)c2ccc(C)nc2)CCN(C)CC1 (centres unmarked) [Compound No. 23] ?
stdout: 17

stdin: Moving on to Cc1ccc2c(c1)c1c(n2CCc2ccccc2Cl)CCN(C)CC1 [Compound No. 69]
stdout: -4

stdin: What do we get for CN1CCc2c(n(CC(=O)N(C)C3CCCCC3)c3ccc(Cl)cc23)CC1 [Compound No. 74] ?
stdout: -4
